All figures here come from the supplement of paper PMC3545927.

# tgt: furin, P09958
# Sequence (P09958 whole entry): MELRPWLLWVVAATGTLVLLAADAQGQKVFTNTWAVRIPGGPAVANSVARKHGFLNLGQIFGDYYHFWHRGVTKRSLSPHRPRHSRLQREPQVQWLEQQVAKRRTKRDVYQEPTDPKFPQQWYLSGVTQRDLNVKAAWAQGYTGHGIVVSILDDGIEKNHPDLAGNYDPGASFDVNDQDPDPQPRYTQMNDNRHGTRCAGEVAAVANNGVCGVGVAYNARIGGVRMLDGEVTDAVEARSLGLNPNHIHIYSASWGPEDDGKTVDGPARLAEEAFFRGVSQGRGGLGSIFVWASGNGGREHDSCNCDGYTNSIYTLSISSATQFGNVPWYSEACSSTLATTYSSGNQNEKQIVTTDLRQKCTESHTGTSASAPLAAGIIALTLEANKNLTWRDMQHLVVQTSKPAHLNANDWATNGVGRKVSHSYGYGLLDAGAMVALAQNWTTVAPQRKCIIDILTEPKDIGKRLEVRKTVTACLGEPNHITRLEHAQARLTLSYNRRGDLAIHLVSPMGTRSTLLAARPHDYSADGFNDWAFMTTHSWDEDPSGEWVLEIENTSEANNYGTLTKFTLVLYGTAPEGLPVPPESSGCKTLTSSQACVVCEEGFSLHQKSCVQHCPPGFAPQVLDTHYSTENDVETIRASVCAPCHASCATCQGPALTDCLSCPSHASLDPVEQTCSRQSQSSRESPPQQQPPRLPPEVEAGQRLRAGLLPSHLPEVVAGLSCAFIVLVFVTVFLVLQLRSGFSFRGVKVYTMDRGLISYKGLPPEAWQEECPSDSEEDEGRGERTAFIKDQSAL
# protocol-details: furin cleavage Z-score vs untreated control; higher = more cleavage, active = 3.5 or more, inactive = 1 or less, 8 variable residues between constant flanks;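 further: purified furin at 1:10 enzyme:substrate in 50 mM HEPES pH 7.5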
# test-parameters: 7.5 min
The other results are listed elsewhere or left out. The true hit rate is not given.
The following sequences are listed with their measured furin cleavage Z-score values.
measured-parameter: furin cleavage Z-score

[[record]]
residue_sequence = "CATWLKAKLMAGNASASA [HC1157]"
measured_parameter = "furin cleavage Z-score"
numeric_readout = 3.1

[[record]]
residue_sequence = "CAEVVTSTWRAGNASASA [HC2253]"
measured_parameter = "furin cleavage Z-score"
numeric_readout = 0.989

[[record]]
residue_sequence = "CAVTCCSMSYAGNASASA [HC2018]"
measured_parameter = "furin cleavage Z-score"
numeric_readout = 0.12

[[record]]
residue_sequence = "CAGENCGYRRAGNASASA [HC1506]"
measured_parameter = "furin cleavage Z-score"
numeric_readout = -0.528

[[record]]
residue_sequence = "CAMEECTQHLAGNASASA [HC36]"
measured_parameter = "furin cleavage Z-score"
numeric_readout = 1.8

[[record]]
residue_sequence = "CAITGHRMAWAGNASASA [HC317]"
measured_parameter = "furin cleavage Z-score"
numeric_readout = -0.992

